Please respond with reported inhibition at 1 µM for every item in the list.
molecular target: recombinant BRD4(BD1 + BD2) (Homo sapiens); test: BRD4 inhibition assay; assay type: binding; conditions: read-out: Inhibition rate BRD4, 1 μmol/L; tested in duplicate, average
Hi! Could you send only the number? It should be in %, unit omitted.

Would you mind telling me what inhibition at 1 µM value was observed for COc1cc(OC)c2c(=O)[nH]c(-c3ccc(OCCOn4nnc5ccccc54)c(Cl)c3)nc2c1 [Compound 19p] ?
3

Given the entry COc1cccc2nc(-c3cccc(C(=O)N4CCN(C(=O)C5CC5)CC4)c3)[nH]c(=O)c12 [Compound 11e] , report its measured inhibition at 1 µM.
8

Consider the compound shown here: `COc1cc(OC)c2c(=O)[nH]c(-c3cccc4nc[nH]c34)nc2c1` What is its recorded inhibition at 1 µM?
8

Which inhibition at 1 µM reading was recorded for the compound COc1cc(OC)c2c(=O)[nH]c(-c3cc(C)c(OCCO)c(C)c3)nc2c1 [RVX-208, reference compound] ?
20

Fill in the blank: the reported inhibition at 1 µM of COc1cc(OC)c2c(=O)[nH]c(-c3cccc(C(=O)N4CCN(C(=O)C5CC5)CC4)c3)nc2c1 [Compound 11a] is ____.
4

Look at this compound and give its reported inhibition at 1 µM. `O=c1[nH]c(-c2ccc(N3CCOCC3)cc2)nc2ccccc12`
12

Which inhibition at 1 µM value is on record for `CNC(=O)c1ccc(-c2nc3ccccc3c(=O)[nH]2)cc1` ?
0

Using the record for `COc1cc(OC)c2c(=O)[nH]c(-c3ccc(N4CCOCC4)cc3)nc2c1` , report its inhibition at 1 µM.
12

---

test: Pharmacokinetic study, oral; assay type: in vivo, Sprague–Dawley rats; conditions: male, Sprague-Dawley, rat, plasma, po, 10 mg/kg
Measure Name: AUC(0-t) (ng·h/mL)
Answer with a number only, understood to be in ng·h/mL.

Any idea what AUC(0-t) was measured for COc1cc(OC)c2c(=O)[nH]c(-c3ccc(OCCOc4ccccc4C(N)=O)cc3)nc2c1 [Compound 19d] ?
114

---

Give measured inhibition at 1 µM for each item. Keep answers brief.
molecular target: recombinant BRD4(BD1 + BD2) (Homo sapiens, UniProt O60885); assay: BRD4 inhibition assay; format: binding; details: read-out: Inhibition rate BRD4, 1 μmol/L; tested in duplicate, average
Supply the numeric figure in %, leaving out any unit text.

Notebook entry, recombinant BRD4(BD1 + BD2) (Homo sapiens, UniProt O60885) assay: inhibition at 1 µM of COc1cc(OC)c2c(=O)[nH]c(-c3ccc(OCCOc4ccncc4C(N)=O)cc3)nc2c1 [Compound 19u] = ?
6

Form entry - test system: recombinant BRD4(BD1 + BD2) (Homo sapiens, UniProt O60885); read-out: inhibition at 1 µM; molecule: COc1cc(OC)c2c(=O)[nH]c(-c3cc(F)ccc3OCCOc3ccccc3C(N)=O)nc2c1 [Compound 19s]
8

Item: `CNC(=O)c1ccc(-c2nc3cc(OC)cc(OC)c3c(=O)[nH]2)cc1` Test system: recombinant BRD4(BD1 + BD2) (Homo sapiens, UniProt O60885) Read-out: inhibition at 1 µM Value: ?
1

Request - read-out inhibition at 1 µM | tested on recombinant BRD4(BD1 + BD2) (Homo sapiens, UniProt O60885) | molecule O=C(c1ccc(-c2nc3ccccc3c(=O)[nH]2)c(F)c1)N1CCn2c(nnc2C(F)(F)F)C1 [Compound 15d]
3

Which measured inhibition at 1 µM belongs to `O=c1[nH]c(-c2c[nH]c3ncccc23)nc2ccccc12` , tested on recombinant BRD4(BD1 + BD2) (Homo sapiens, UniProt O60885)?
6

Recorded inhibition at 1 µM for COc1cc(OC)c2c(=O)[nH]c(-c3ccc(OCCOn4nnc5ccccc54)c(F)c3)nc2c1 [Compound 19l] with recombinant BRD4(BD1 + BD2) (Homo sapiens, UniProt O60885), please?
29

Look up inhibition at 1 µM with recombinant BRD4(BD1 + BD2) (Homo sapiens, UniProt O60885) for this molecule: COc1cc(OC)c2c(=O)[nH]c(-c3ccc(OCCOc4ccccc4C(N)=O)cc3)nc2c1 [Compound 19d]
69

Param readout = inhibition at 1 µM; param system = recombinant BRD4(BD1 + BD2) (Homo sapiens, UniProt O60885); param query = COc1cc(OC)c2c(=O)[nH]c(-c3cc(Cl)ccc3OCCCCCOc3ccccc3C(N)=O)nc2c1 [Compound 19e] ; response: value
4
